# experimental_system: complement C5a receptor 1 (C5aR1) (Homo sapiens, UniProt P21730)
# Construct: β-galactosidase fragment (PathHunter enzyme complementation); host or cells: CHO-K1 (PathHunter CHO-K1 C5aR1 β-arrestin cell line)
# Sequence (P21730 whole entry, the tested form may be a part): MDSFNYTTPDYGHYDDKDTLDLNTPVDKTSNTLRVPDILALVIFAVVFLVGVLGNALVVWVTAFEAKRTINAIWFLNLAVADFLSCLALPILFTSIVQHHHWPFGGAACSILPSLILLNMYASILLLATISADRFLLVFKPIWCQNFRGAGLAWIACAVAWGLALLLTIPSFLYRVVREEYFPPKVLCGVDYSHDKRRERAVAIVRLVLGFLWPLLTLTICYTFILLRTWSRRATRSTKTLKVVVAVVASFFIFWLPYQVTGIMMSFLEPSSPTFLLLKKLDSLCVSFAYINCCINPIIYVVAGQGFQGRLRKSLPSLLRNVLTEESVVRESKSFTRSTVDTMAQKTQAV
# experiment_summary: β-arrestin recruitment via C5aR1 activation in live CHO-K1 cells (PathHunter), antagonist mode
# Assay type: cell-based
# assay_context: antagonist mode; recombinant hC5a (EC90) as competing natural agonist; live CHO-K1 cells; read-out: [Antagonist] B-arrestin2 recruitment: Average IC50
parameter: IC50

# input Name the recorded IC50 for `Cc1cccc(F)c1N1CCC(c2cc3nccnc3n(Cc3ccncc3C(F)(F)F)c2=O)CC1` .
# output 500 to 5000 nM

# input Name the recorded IC50 for `Cc1ccc2cc([C@H]3CC[C@H](c4c(C)cccc4F)CC3)c(=O)n(Cc3nccnc3OCC(F)(F)F)c2n1` .
# output < 500 nM

# input Name the recorded IC50 for `Cc1cnc2cc([C@H]3CC[C@H](c4cnccc4C(F)F)CC3)c(=O)n(Cc3ncccc3C(F)(F)F)c2n1` .
# output < 500 nM

# input Name the recorded IC50 for `Cc1cccc(F)c1N1CCC(c2cc3nccnc3n(Cc3ncccc3OC(F)(F)F)c2=O)CC1` .
# output < 500 nM

# input Name the recorded IC50 for `COc1nccnc1N1CCC(c2cc3nccnc3n(Cc3ccccc3C(F)(F)F)c2=O)CC1` .
# output 5000 to 100000 nM

# input Name the recorded IC50 for `Cc1cnc2cc(N3CCN(c4c(C)cccc4F)CC3)c(=O)n(Cc3nccnc3C(F)(F)F)c2n1` .
# output < 500 nM

* * *

# experimental_system: complement C5a receptor 1 (C5aR1) (Homo sapiens, UniProt P21730)
# Construct: β-galactosidase fragment (PathHunter enzyme complementation); host or cells: CHO-K1 (PathHunter CHO-K1 C5aR1 β-arrestin cell line)
# experiment_summary: β-arrestin recruitment via C5aR1 activation in live CHO-K1 cells (PathHunter), antagonist mode
# Format: cell-based
# assay_context: antagonist mode; recombinant hC5a (EC90) as competing natural agonist; live CHO-K1 cells; read-out: [Antagonist] B-arrestin2 recruitment: Average IC50
parameter: IC50

# input Name the recorded IC50 for Cc1cnc2cc([C@H]3CC[C@@H](c4c(C)cccc4F)CC3)c(=O)n(Cc3nccnc3OC(F)F)c2n1 [168A] .
# output 500 to 5000 nM

# input Name the recorded IC50 for Cc1cnc2cc(N3CCN(c4c(C)cccc4F)CC3)c(=O)n(Cc3ncccc3C(F)(F)F)c2n1 [compound 67] .
# output < 500 nM

# input Name the recorded IC50 for COc1nccnc1Cn1c(=O)c(C2CCN(c3c(C)cccc3F)CC2)cc2nccnc21 [compound 5] .
# output 500 to 5000 nM

# input Name the recorded IC50 for Cc1nccnc1Cn1c(=O)c(C2CCN(c3c(F)cccc3C(F)(F)F)CC2)cc2nccnc21 [compound 126] .
# output 500 to 5000 nM

# input Name the recorded IC50 for Cc1cnc2cc([C@H]3CC[C@H](c4ncccc4C(F)F)CC3)c(=O)n(Cc3ncccc3C(F)(F)F)c2n1 [compound 179] .
# output < 500 nM

# input Name the recorded IC50 for Cc1ncc2cc(N3CCN(c4c(C)cccc4F)CC3)c(=O)n(Cc3ncccc3OC(F)(F)F)c2n1 [compound 110] .
# output < 500 nM

# input Name the recorded IC50 for Cc1cccc(F)c1N1CCC(c2cc3ncncc3n(Cc3nccnc3C(F)(F)F)c2=O)CC1 [compound 82] .
# output > 100000 nM

Source: patent US20260317320A1
